Entries and their IC50
assayExplanation: Inhibition of serine protease
property: IC50 (µM)

| structureSmiles | outputUnit | reportedResult |
| --- | --- | --- |
| O=C1c2cc(Br)ccc2-n2nncc2[C@@H]2CCCN12 | µM | 290 |
| O=C1c2cc(I)cc(I)c2-n2nncc2[C@@H]2C[C@@H](OCc3ccccc3)CN12 | µM | 196 |
| Cc1cc(Br)cc2c1C(=O)N1CCC[C@H]1c1cnnn1-2 | µM | 674 |
| O=C1c2c(cccc2[N+](=O)[O-])-n2nncc2[C@@H]2CCCN12 | µM | 108 |
| O=C1c2cc(Br)ccc2-n2nncc2[C@@H]2C[C@@H](OCc3ccccc3)CN12 | µM | 206 |
| Cc1cccc2c1C(=O)N1C[C@H](OCc3ccccc3)C[C@H]1c1cnnn1-2 | µM | 536 |

FYI, the data here is from ChEMBL document CHEMBL1154205.
